test-system: 5-HT1A human receptors (Homo sapiens)
Construct: expressed in transfected cells; host or cells: CHO cells
Sequence (P08908 whole entry): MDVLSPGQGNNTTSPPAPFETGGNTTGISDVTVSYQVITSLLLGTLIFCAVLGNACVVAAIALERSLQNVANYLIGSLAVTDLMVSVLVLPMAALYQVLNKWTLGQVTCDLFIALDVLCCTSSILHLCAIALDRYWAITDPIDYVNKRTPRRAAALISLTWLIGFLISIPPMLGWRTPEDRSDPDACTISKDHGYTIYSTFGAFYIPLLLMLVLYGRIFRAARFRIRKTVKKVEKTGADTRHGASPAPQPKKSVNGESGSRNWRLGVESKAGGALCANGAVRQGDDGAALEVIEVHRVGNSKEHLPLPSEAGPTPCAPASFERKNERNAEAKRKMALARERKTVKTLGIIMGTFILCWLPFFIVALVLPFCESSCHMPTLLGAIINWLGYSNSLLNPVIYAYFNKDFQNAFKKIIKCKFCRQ
experimental-details: 5-HT1A Radioligand Receptor Binding Assay ([3H]-8-OH-DPAT, CHO cell membranes)
experimental-endpoint: IC50 (nM)
Just the number in nM, nothing appended.

Request: # input molecule: "O=c1n(CCO)c2ccccc2n1CCCCN1CCN(c2cccc(C(F)(F)F)c2)CC1" ; wanted: its IC50
Result: 12

---

test-system: 5-HT1A human receptors (Homo sapiens)
Construct: expressed in transfected cells; host or cells: CHO cells
experimental-details: 5-HT1A Radioligand Receptor Binding Assay ([3H]-8-OH-DPAT, CHO cell membranes)
run-parameters: compound at 10^-7 M, singlicate; [3H]-8-OH-DPAT 0.6-0.7 nM; read-out: 5-HT1A receptor binding assay % inhib. (10^-7 M)
List of inhibition at 0.1 µM values.
Just the number in %, nothing appended.

Known inhibition at 0.1 µM results, listed for orientation:
INSERT INTO measurements (molecule, experimental_endpoint, data_value) VALUES
  ('O=c1n(C/C=C\CN2CCN(c3cccc(C(F)(F)F)c3)CC2)c2ccccc2n1CCO [compound 369]', 'inhibition at 0.1 µM', 96),
  ('Cc1cccc(N2CCN(CCCCn3c(=O)n(CCO)c4ccccc43)CC2)c1C [compound 73]', 'inhibition at 0.1 µM', 91),
  ('O=c1n(CCO)c2ccccc2n1CCCCN1CC=C(c2ccccc2)CC1 [compound 65]', 'inhibition at 0.1 µM', 52),
  ('COCCn1c(=O)n(CCCCN2CCN(c3cccc(Cl)c3)CC2)c2ccccc21 [compound 5]', 'inhibition at 0.1 µM', 92),
  ('Cc1cccc(N2CCN(CCn3c(=O)n(CCNS(C)(=O)=O)c4ccccc43)CC2)c1C [compound 254]', 'inhibition at 0.1 µM', 85),
  ('COc1ccccc1N1CCN(C/C=C/Cn2c(=O)n(CCNS(C)(=O)=O)c3ccccc32)CC1 [compound 535]', 'inhibition at 0.1 µM', 97);

Request: Write down the reported inhibition at 0.1 µM of O=c1n(C/C=C\CN2CCc3c([nH]c4ccccc34)C2)c2ccccc2n1CCN1CCCCC1 [compound 316] , test system: 5-HT1A human receptors (Homo sapiens).
Result: 72

Request: Write down the reported inhibition at 0.1 µM of COCCn1c(=O)n(CCCCN2CCN(c3cccc(C(F)(F)F)c3)CC2)c2ccccc21 [compound 9] , test system: 5-HT1A human receptors (Homo sapiens).
Result: 93

---

test-system: D4 human receptors (Homo sapiens, UniProt P21917)
Construct: expressed in transfected cells; host or cells: CHO cells
Sequence (P21917 whole entry): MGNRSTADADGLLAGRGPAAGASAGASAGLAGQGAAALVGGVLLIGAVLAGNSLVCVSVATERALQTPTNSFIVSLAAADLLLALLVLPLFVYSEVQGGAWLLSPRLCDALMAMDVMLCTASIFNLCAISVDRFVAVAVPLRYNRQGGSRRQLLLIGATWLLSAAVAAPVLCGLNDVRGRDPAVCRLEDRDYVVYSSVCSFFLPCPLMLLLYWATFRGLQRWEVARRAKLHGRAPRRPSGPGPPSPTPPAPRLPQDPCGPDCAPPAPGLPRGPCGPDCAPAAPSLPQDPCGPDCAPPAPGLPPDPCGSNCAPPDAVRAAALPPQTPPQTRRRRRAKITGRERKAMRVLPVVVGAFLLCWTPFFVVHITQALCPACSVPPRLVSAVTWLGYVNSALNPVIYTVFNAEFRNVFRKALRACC
experimental-details: D4 Radioligand Receptor Binding Assay ([3H] YM-09151-2, CHO cell membranes)
run-parameters: compound at 10^-7 M, singlicate; [3H] YM-09151-2 0.15-0.25 nM; read-out: D4 receptor binding assay % inhib. (10^-7 M)
Binned inhibition at 0.1 µM; ranges: range A: < 40%; range B: ≥ 40% and < 60%; range C: ≥ 60%

Worked cases, answers included:
INSERT INTO measurements (smiles_string, assigned_label) VALUES
  ('COCCn1c(=O)n(CC=CCN2CCN(c3cccc(Cl)c3)CC2)c2ccccc21', 'range A'),
  ('Cc1cccc(N2CCN(CCCCn3c(=O)n(CCN4CCCCC4)c4ccccc43)CC2)c1C', 'range B'),
  ('Cc1cccc(N2CCN(CCn3c(=O)n(CCN4CCCCC4)c4ccccc43)CC2)c1C', 'range C');

Request: Please classify: "O=c1n(CCO)c2ccccc2n1CCCCN1CCN(c2ccccn2)CC1"
Result: range B

Request: Please classify: "O=c1n(CCO)c2ccccc2n1CCCCN1CC=C(c2ccccc2)CC1"
Result: range C

Request: Please classify: "CCNC(=O)OCCn1c(=O)n(C/C=C\CN2CCN(c3ccccc3)CC2)c2ccccc21"
Result: range A

Request: Please classify: "O=c1n(C/C=C/CN2CCN(c3ccccc3)CC2)c2ccccc2n1CCO"
Result: range A

Request: Please classify: "Cc1cccc(N2CCN(CCn3c(=O)n(CCNS(C)(=O)=O)c4ccccc43)CC2)c1C"
Result: range A

Request: Please classify: "O=c1n(C/C=C\CN2CCN(c3cccc(C(F)(F)F)c3)CC2)c2ccccc2n1CCN1CCCCC1"
Result: range A

Request: Please classify: "O=c1n(CCN2CC=C(c3ccccc3)CC2)c2ccccc2n1CCN1CCCCC1"
Result: range B

Request: Please classify: "CCNC(=O)OCCn1c(=O)n(CCN2CCN(c3ccccc3Cl)CC2)c2ccccc21"
Result: range A

Request: Please classify: "O=c1n(C/C=C\CN2CCN(c3ccccn3)CC2)c2ccccc2n1CCO"
Result: range A

Request: Please classify: "O=c1n(C/C=C/CN2CCN(c3cccc(Cl)c3)CC2)c2ccccc2n1CCN1CCOCC1"
Result: range B

Request: Please classify: "CS(=O)(=O)NCCn1c(=O)n(C/C=C\CN2CCc3c([nH]c4ccccc34)C2)c2ccccc21"
Result: range C

Request: Please classify: "O=c1n(C/C=C\CN2CCN(c3ccccc3)CC2)c2ccccc2n1CCN1CCCCC1"
Result: range B

Request: Please classify: "O=c1n(C/C=C\CN2CC=C(c3ccccc3)CC2)c2ccccc2n1CCN1CCCCC1"
Result: range C

Request: Please classify: "COCCn1c(=O)n(CCCCN2CCN(c3cccc(Cl)c3)CC2)c2ccccc21"
Result: range B

Request: Please classify: "CS(=O)(=O)NCCn1c(=O)n(CCN2CCN(c3cccc(Cl)c3)CC2)c2ccccc21"
Result: range A

Request: Please classify: "COCCn1c(=O)n(C/C=C/CN2CCN(c3ccc(Cl)c(Cl)c3)CC2)c2ccccc21"
Result: range C

Request: Please classify: "COCCn1c(=O)n(C/C=C\CN2CCN(c3ccc(Cl)c(Cl)c3)CC2)c2ccccc21"
Result: range C

Request: Please classify: "O=c1n(CCO)c2ccccc2n1CCCCN1CCN(c2cccc(C(F)(F)F)c2)CC1"
Result: range B

Request: Please classify: "COc1ccccc1N1CCN(CCn2c(=O)n(CCN3CCCCC3)c3ccccc32)CC1"
Result: range B

Request: Please classify: "O=c1n(C/C=C\CN2CCc3c([nH]c4ccccc34)C2)c2ccccc2n1CCN1CCCCC1"
Result: range C

Request: Please classify: "O=c1n(CCN2CCCCC2)c2ccccc2n1CCN1CCN(c2cccc(C(F)(F)F)c2)CC1"
Result: range A

Request: Please classify: "O=c1n(C/C=C/CN2CCc3c([nH]c4ccccc34)C2)c2ccccc2n1CCN1CCCCC1"
Result: range C
